system: SNB-75 CNS; experiment: NCI tumour cell line growth inhibition, 48 h
For each of the molecules below, state its GI50.

Item O=c1[nH]c(-c2ccncc2)nc2sc3c(c12)CCCCCC3 ; assay system SNB-75 CNS; GI50 reported as 2710 nM

Item C=CN(C(=O)N1CCN(c2cc3c(cc2F)c(=O)c(C(=O)O)cn3C2CC2)CC1)c1nc(-c2ccc(C)cc2)cs1 ; assay system SNB-75 CNS; GI50 reported as 2130 nM

Item COc1ncc(-c2ccc3nc(N)n(-c4ccccc4C(F)(F)F)c(=O)c3c2)cc1S(=O)(=O)Nc1ccc(F)cc1F ; assay system SNB-75 CNS; GI50 reported as 866 nM

Item CC(C)OC(=O)OCOP(=O)(OCOC(=O)OC(C)C)C1CCCN(O)C1=O (stereo not drawn) ; assay system SNB-75 CNS; GI50 reported as 5460 nM

Item CCC[CH2][Sn]1([CH2]CCC)[O]C(=O)c2cccnc2[S]1 ; assay system SNB-75 CNS; GI50 reported as 2540 nM

Item CC1(C)CC[C@]2(C(=O)O)CC[C@]3(C)C(=CC[C@@H]4[C@@]5(C)C/C(=C/c6cccnc6)[C@H](O)C(C)(C)[C@@H]5CC[C@]43C)[C@@H]2C1 ; assay system SNB-75 CNS; GI50 reported as 38600 nM

Item C=C(C)[C@@H]1CC[C@]2(C(=O)OC)CC[C@]3(C)[C@H](CC[C@@H]4[C@@]5(C)CC/C(=N\OCCC(=NCCC#N)NOCCC#N)C(C)(C)[C@@H]5CC[C@]43C)[C@@H]12 ; assay system SNB-75 CNS; GI50 reported as 31200 nM

Item Nc1nc(-c2ccccn2)c(-c2ccc3ncccc3n2)s1 ; assay system SNB-75 CNS; GI50 reported as > 25000 nM
